Attribution: ChEMBL document CHEMBL1201862

Tested on: MCF7
Experiment: NCI tumour cell line growth inhibition, 48 h
Active and inactive are the calls of the source. Cut-off read from the data, not from the text of the source: active = GI50 up to about 1.1 µM and inactive = higher.
measurement kind: GI50

[[record]]
compound = "O=C1CCCCC[C@]12SC[C@H]1CON=C12"
measurement_kind = "GI50"
assay_result = "21.9 µM (inactive)"

[[record]]
compound = "O=[N+]([O-])c1ccc(/C=N/n2c(S)nnc2CCc2nnc(S)n2/N=C/c2ccc([N+](=O)[O-])o2)o1"
measurement_kind = "GI50"
assay_result = "18.1 µM (inactive)"

[[record]]
compound = "OC1(c2ccc3ccccc3c2)c2c(c3ccccc3c3ccccc23)C2=NCCN21 (stereo not drawn)"
measurement_kind = "GI50"
assay_result = "3.48 µM (inactive)"

[[record]]
compound = "Cc1cc(C)nc(NS(=O)(=O)c2ccc(NNc3c4ccccc4nc4c(C(=O)Nc5ccc(S(=O)(=O)Nc6ncccn6)cc5)cccc34)cc2)n1"
measurement_kind = "GI50"
assay_result = "52.8 µM (inactive)"

[[record]]
compound = "C=C1[C@@H]2CCC3[C@]4(C)C(CC[C@@]5(C)C(=O)O[C@H](O)[C@@H]45)[C@H](O)[C@]3(C2)[C@H]1OC1OC(CO)C(O)C(O)C1O (stereo partly drawn)"
measurement_kind = "GI50"
assay_result = "> 50 µM (inactive)"

[[record]]
compound = "O=C1C2=C(C3=NCCc4c[nH]c1c43)c1c(Br)cc(Br)cc1CCN2"
measurement_kind = "GI50"
assay_result = "1.8 µM (inactive)"

[[record]]
compound = "CC1(C)CC(=O)C(=CNc2nc(-c3cccc([N+](=O)[O-])c3)cs2)C(=O)C1"
measurement_kind = "GI50"
assay_result = "15.8 µM (inactive)"

[[record]]
compound = "CC(=O)OCCCCn1cc(Cn2ccc(=O)n(Cc3cn(CCCCOC(C)=O)nn3)c2=O)nn1"
measurement_kind = "GI50"
assay_result = "> 100 µM (inactive)"


====

Tested on: Hs-578T
Assay: NCI tumour cell line growth inhibition, 48 h
Activity calls are given as the source filed them. Rule as the data show it: active = GI50 up to about 1.1 µM and inactive = higher.
Classes used: true for active, false for inactive

[[record]]
compound = "O=C(NCCc1ccccn1)c1ccc2cc(C(=O)N3CC(CCl)c4ccc([N+](=O)[O-])cc43)[nH]c2c1 (configuration not stated)"
discrete_label = "false"

[[record]]
compound = "CCOC(=O)C1CCC(=O)N1C(=O)c1ccccc1Cl (configuration not stated)"
discrete_label = "false"

[[record]]
compound = "C[C@H](CCC(=O)O[C@@H]1CC[C@@]2(C)C(CC[C@H]3[C@@H]4CC[C@H]([C@H](C)CCc5nc6ccccc6[nH]5)[C@@]4(C)CC[C@@H]32)C1)[C@H]1CC[C@H]2[C@@H]3CCC4C[C@H](O)CC[C@]4(C)[C@H]3CC[C@]12C (some centres not stated)"
discrete_label = "true"

[[record]]
compound = "O=C(Cc1ccc(Cl)c(Cl)c1)N(CCc1ccc(Cl)c(Cl)c1)CCN1CCCC1"
discrete_label = "false"

[[record]]
compound = "c1ccc(-c2cc(-c3cccs3)c(-c3cccs3)o2)cc1"
discrete_label = "false"

[[record]]
compound = "N=C(N)NCCCC(=O)O"
discrete_label = "false"

[[record]]
compound = "CCOC(=O)CCC(NC(=O)C(CCC(=O)OCC)NC(=O)C(Cc1ccc([N+](=O)[O-])cc1)NC(C)=O)C(=O)NNC(=O)OC(C)(C)C (configuration not stated)"
discrete_label = "false"

[[record]]
compound = "Nc1c(Br)cc(-c2nc3ccccc3s2)cc1Br"
discrete_label = "false"

[[record]]
compound = "COc1ccc2[nH]c3c(O)c(-c4c(C)cc5c([nH]c6ccc(OC)cc65)c4O)c(C)cc3c2c1"
discrete_label = "false"

[[record]]
compound = "COC(=O)C1CC=C(SC(=O)c2ccccc2)N1C(=O)c1ccccc1 (configuration not stated)"
discrete_label = "false"

[[record]]
compound = "O=[N+]([O-])c1ccc2nc(Nc3ccccc3)c(Nc3ccccc3)nc2c1"
discrete_label = "false"

[[record]]
compound = "S=c1sc2nc(Cl)nc(Cl)c2s1"
discrete_label = "false"

